- Test system: T47D mammary malignancy
- test.name: SRB antiproliferative assay
- Type: cell-based, human
- experimental.context: Homo sapiens, T47D, 72 h; read-out: Cytotoxicity (as of %control) IC50 value, T47D mammary malignancy
- Description: All malignancy cell lines were cultured in high glucose DMEM (Bio Whittaker, Verviers, Belgium) containing 10% FBS, 4-(2-hydroxyethyl)-1-piperazineethanesulfonic acid (HEPES) Buffer (10 mM), L-glutamine (2 mM), gentamicin (50 µg/mL), penicillin (100 U/mL), and streptomycin sulfate ([…]) from Sigma (St. Luis, MO, USA) whereas Sulforhodamine B was from Santa Cruz Biotechnology (Inc. Texas, USA). […]
reported.property: pIC50
Answers are plain numbers, as −log10 of the molar value.

# molecule COc1ccccc1/C=N/NC(=S)N/N=C/c1ccccc1OC [L1] ; its pIC50 = 4.66

---

- System: Periodontal ligament fibroblasts (PDL)
- test.name: SRB selective cytotoxicity in normal fibroblasts
- Format: cell-based
- experimental.context: Fibroblast
pIC50: −log10 of the molar value.
reported.property: pIC50

// for each compound in input: emit pIC50
1. COc1ccccc1/C=N/NC(=S)N/N=C/c1ccccc1OC [L1]
2. COc1ccc(/C=N/NC(=S)N/N=C/c2ccc(OC)cc2)cc1 [L2]

["< 3.70", "< 3.70"]

---

- Test system: PANC1 pancreatic cell line
- test.name: SRB antiproliferative assay
- Assay type: cell-based, human
- experimental.context: Homo sapiens, PANC-1, 72 h, read-out: Cytotoxicity (as of %control) IC50 value, PANC1
pIC50: −log10 of the molar value.
reported.property: pIC50

The recorded pIC50 with PANC1 pancreatic cell line for COc1ccc(/C=N/NC(=S)N/N=C/c2ccc(OC)cc2)cc1 was < 3.70

---

- System: Hela cervix malignancy
- test.name: SRB antiproliferative assay
- Format: cell-based, human
- experimental.context: Homo sapiens, HeLa, 72 h; read-out: Cytotoxicity (as of %Control) IC50 value, Hela cervix malignancy
reported.property: pIC50
Answers are plain numbers, as −log10 of the molar value.

pIC50 for COc1ccccc1/C=N/NC(=S)N/N=C/c1ccccc1OC is 4.35

---

- Test system: Hela cervix malignancy
- test.name: SRB antiproliferative assay
- Type: cell-based, human
- experimental.context: 72 h incubations; 3.125-200µM range; mean ± SD n = 4; read-out: Cytotoxicity (as of %Control) IC50 value, Hela cervix malignancy
reported.property: IC50 (µM)
Numbers only, in µM.

Record summary for N.N.[Cl][Pt][Cl] [Cisplatin, reference compound] : reported IC50 = 27.3

---

- Tested on: BT-549 invasive mammary malignancy
- test.name: SRB antiproliferative assay
- Assay type: cell-based, human
- experimental.context: 72 h incubations; 3.125-200µM range; mean ± SD n = 4; read-out: Cytotoxicity (as of %control) IC50 value, BT-549 invasive mammary malignancy
reported.property: IC50 (µM)
Give bare numbers, in µM.

For record N.N.[Cl][Pt][Cl] [Cisplatin, reference compound] the listed IC50 is 3.77

---

- System: MCF7 mammary malignancy
- test.name: SRB antiproliferative assay
- Assay type: cell-based, human
- experimental.context: 72 h incubations; 3.125-200µM range; mean ± SD n = 4; read-out: Cytotoxicity (as of %control) IC50 value, MCF7 mammary malignancy
reported.property: IC50 (µM)
One number for each entry, in µM.

Observed IC50, MCF7 mammary malignancy, N.N.[Cl][Pt][Cl] [Cisplatin, reference compound] : 31.6

Data origin: paper PMC12394552
